target: PLK4 (h) (Homo sapiens); test: PLK-4 human kinase scintillation proximity assay (SPA); format: biochemical; details: 1 μM ATP, 60 minutes at r.t., read-out: PLK4 pIC50 (converted)
Sequence (O00444 whole entry): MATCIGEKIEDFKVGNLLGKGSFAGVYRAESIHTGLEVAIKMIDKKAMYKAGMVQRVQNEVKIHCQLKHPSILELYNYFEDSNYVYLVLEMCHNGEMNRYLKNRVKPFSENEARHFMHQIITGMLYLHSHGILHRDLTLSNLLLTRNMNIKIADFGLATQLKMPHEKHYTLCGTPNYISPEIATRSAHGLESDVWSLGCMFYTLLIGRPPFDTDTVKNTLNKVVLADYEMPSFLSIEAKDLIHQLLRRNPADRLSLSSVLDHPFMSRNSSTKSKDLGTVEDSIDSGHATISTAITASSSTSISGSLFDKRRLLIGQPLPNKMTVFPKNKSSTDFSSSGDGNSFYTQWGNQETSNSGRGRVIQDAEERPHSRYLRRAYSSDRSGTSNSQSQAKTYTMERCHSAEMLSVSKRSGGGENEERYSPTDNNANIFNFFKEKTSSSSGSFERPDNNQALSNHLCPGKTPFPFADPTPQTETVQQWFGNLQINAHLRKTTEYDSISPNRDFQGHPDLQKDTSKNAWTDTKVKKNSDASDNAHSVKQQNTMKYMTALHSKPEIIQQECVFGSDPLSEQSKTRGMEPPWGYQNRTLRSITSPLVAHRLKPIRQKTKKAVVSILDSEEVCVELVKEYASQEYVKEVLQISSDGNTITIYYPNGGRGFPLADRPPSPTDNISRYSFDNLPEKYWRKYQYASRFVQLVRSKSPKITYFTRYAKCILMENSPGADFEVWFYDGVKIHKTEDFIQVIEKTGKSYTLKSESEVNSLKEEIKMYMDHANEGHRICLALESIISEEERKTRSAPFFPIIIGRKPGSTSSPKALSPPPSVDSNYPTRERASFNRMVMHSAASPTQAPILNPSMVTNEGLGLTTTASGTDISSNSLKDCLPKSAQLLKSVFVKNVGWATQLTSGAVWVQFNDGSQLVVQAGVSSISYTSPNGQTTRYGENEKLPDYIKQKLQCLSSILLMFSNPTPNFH
IC50 overview
PARAMETER: IC50 (nM)

- COMPOUND: "CN1CCCN(C)C(=O)COc2cc(ccc2N2CCCC2)Nc2ncnc3[nH]cc(c23)C1 [Compound 82]"
  TESTED_ON: "PLK4 (h) (Homo sapiens)"
  PARAMETER: "IC50"
  CENSORING_SIGN: "="
  MEASURED: 79.4
- COMPOUND: "CN1CCCN(C)C(=O)CCCOc2cc(ccc2N2CCOCC2)Nc2ncnc3[nH]cc(c23)C1 [Compound 44]"
  TESTED_ON: "PLK4 (h) (Homo sapiens)"
  PARAMETER: "IC50"
  CENSORING_SIGN: "="
  MEASURED: 1580
- COMPOUND: "CN1CCCN(C)C(=O)COc2cc(ccc2OCCCN2CCOCC2)Nc2ncnc3[nH]cc(c23)C1 [Compound 137]"
  TESTED_ON: "PLK4 (h) (Homo sapiens)"
  PARAMETER: "IC50"
  CENSORING_SIGN: "="
  MEASURED: 398
- COMPOUND: "CN1CCCN(C)C(=O)COc2cccc(c2)Nc2ncnc3[nH]cc(c23)C1 [Compound 120]"
  TESTED_ON: "PLK4 (h) (Homo sapiens)"
  PARAMETER: "IC50"
  CENSORING_SIGN: "="
  MEASURED: 31.6
- COMPOUND: "CN1CCCCN(C)C(=O)COc2cc(ccc2OCC(=O)Nc2ccc(Cl)cc2)Nc2ncnc3[nH]cc(c23)C1 [Compound 133]"
  TESTED_ON: "PLK4 (h) (Homo sapiens)"
  PARAMETER: "IC50"
  CENSORING_SIGN: "="
  MEASURED: 63.1
- COMPOUND: "COc1cc2cc(c1OC)OCCCC(=O)N(C)CCN(C)Cc1c[nH]c3ncnc(c13)N2 [Compound 95]"
  TESTED_ON: "PLK4 (h) (Homo sapiens)"
  PARAMETER: "IC50"
  CENSORING_SIGN: ">"
  MEASURED: 10000
- COMPOUND: "COc1ccc2cc1OCC(=O)N(C)CCCN(Cc1ccccc1)Cc1c[nH]c3ncnc(c13)N2 [Compound 61]"
  TESTED_ON: "PLK4 (h) (Homo sapiens)"
  PARAMETER: "IC50"
  CENSORING_SIGN: "="
  MEASURED: 100
- COMPOUND: "CN1CCCN(C)C(=O)COc2cc(ccc2OCCCNc2ccc(Cl)cc2)Nc2ncnc3[nH]cc(c23)C1 [Compound 142]"
  TESTED_ON: "PLK4 (h) (Homo sapiens)"
  PARAMETER: "IC50"
  CENSORING_SIGN: "="
  MEASURED: 79.4

----------
tested on: A2780; test: Cellular proliferation assay (Alamar blue), A2780; assay type: cell-based; conditions: Homo sapiens, A2780, A2780 cells; 10% FCS; 72 h with compound; Alamar blue 24 h; read-out: pIC50 A2780 (converted)

- STRUCTURE_SMILES: "COc1ccc(OCCCOc2ccc3cc2OCC(=O)N(C)CCCN(C)Cc2c[nH]c4ncnc(c24)N3)cc1"
  UNIT_NAME: "µM"
  CENSORING_SIGN: "="
  IC50: 1.26
- STRUCTURE_SMILES: "CC(C)NC(=O)Nc1ccc2cc1OCC(=O)N(C)CCCN(C)Cc1c[nH]c3ncnc(c13)N2"
  UNIT_NAME: "µM"
  CENSORING_SIGN: "="
  IC50: 3.98
- STRUCTURE_SMILES: "COc1ccc2cc1OCC(=O)N(C)CC1CN(Cc3c[nH]c4ncnc(c34)N2)C1"
  UNIT_NAME: "µM"
  CENSORING_SIGN: ">"
  IC50: 10
- STRUCTURE_SMILES: "COc1ccc2cc1OCCCCC(=O)N(C)CCCN(C)Cc1c[nH]c3ncnc(c13)N2"
  UNIT_NAME: "µM"
  CENSORING_SIGN: ">"
  IC50: 10
- STRUCTURE_SMILES: "CN1CCCN(C)C(=O)COc2cc(ccc2OCCOc2cc(C(F)(F)F)ccn2)Nc2ncnc3[nH]cc(c23)C1"
  UNIT_NAME: "µM"
  CENSORING_SIGN: "="
  IC50: 0.251
- STRUCTURE_SMILES: "CN1CCN(c2ccc3cc2OCCCC(=O)N(C)CCCN(C)Cc2c[nH]c4ncnc(c24)N3)CC1"
  UNIT_NAME: "µM"
  CENSORING_SIGN: "="
  IC50: 6.31
- STRUCTURE_SMILES: "COc1ccc2cc1OCC(=O)N(C)CCN(C)CCCc1c[nH]c3ncnc(c13)N2"
  UNIT_NAME: "µM"
  CENSORING_SIGN: ">"
  IC50: 10
- STRUCTURE_SMILES: "CN1CCN(C)C(=O)CCCOc2cc(ccc2Cl)Nc2ncnc3[nH]cc(c23)C1"
  UNIT_NAME: "µM"
  CENSORING_SIGN: ">"
  IC50: 10

Sourced from patent US8318731B2
